FYI, the data here is from patent US20210388087A1.

- Target or system: T1, CD3 epsilon homodimer protein (UniProt P07766 23-126)
- T1 construct: also called CD3 (CD3 epsilon)
- T1 sequence (P07766 23-126): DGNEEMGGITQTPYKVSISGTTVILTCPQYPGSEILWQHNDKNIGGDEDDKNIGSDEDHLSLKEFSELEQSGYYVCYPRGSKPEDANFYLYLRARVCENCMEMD
- Protocol details: SPR Biacore T200, CD3e homodimer on chip, vs unaltered GLS3000 antibody
Assay readout: ratio of amounts bound (Z=Y/X)
Give the figure only, with no unit attached.

binder="GLS3000 K50T (antibody, name in Kabat numbering, V domains shown, one-arm IgG as m2) VH: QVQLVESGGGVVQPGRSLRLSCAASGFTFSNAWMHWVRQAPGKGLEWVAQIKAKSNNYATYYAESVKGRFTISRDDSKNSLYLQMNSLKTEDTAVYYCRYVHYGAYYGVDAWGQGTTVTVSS VL: DIVMTQSPLSLPVTPGEPASISCRSSQSLVHSNRNTYLHWYQQKPGQAPRLLIYTVSNRFSGVPDRFSGSGSGTDFTLKISRVEAEDVGVYYCGQGTQVPYTFGQGTKLEIK" measured_result=0.19

Exercise: Give its ratio of amounts bound (Z=Y/X) value. Item: GLS3000 H27dG (antibody, name in Kabat numbering, V domains shown, one-arm IgG as m2) VH: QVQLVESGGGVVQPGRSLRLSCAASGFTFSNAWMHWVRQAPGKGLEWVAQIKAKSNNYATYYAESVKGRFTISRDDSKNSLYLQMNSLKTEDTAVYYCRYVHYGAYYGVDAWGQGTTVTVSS VL: DIVMTQSPLSLPVTPGEPASISCRSSQSLVGSNRNTYLHWYQQKPGQAPRLLIYKVSNRFSGVPDRFSGSGSGTDFTLKISRVEAEDVGVYYCGQGTQVPYTFGQGTKLEIK
Solution: 0.3
